system-under-test: CYP2C9 (Homo sapiens)
Sequence (P11712 whole entry): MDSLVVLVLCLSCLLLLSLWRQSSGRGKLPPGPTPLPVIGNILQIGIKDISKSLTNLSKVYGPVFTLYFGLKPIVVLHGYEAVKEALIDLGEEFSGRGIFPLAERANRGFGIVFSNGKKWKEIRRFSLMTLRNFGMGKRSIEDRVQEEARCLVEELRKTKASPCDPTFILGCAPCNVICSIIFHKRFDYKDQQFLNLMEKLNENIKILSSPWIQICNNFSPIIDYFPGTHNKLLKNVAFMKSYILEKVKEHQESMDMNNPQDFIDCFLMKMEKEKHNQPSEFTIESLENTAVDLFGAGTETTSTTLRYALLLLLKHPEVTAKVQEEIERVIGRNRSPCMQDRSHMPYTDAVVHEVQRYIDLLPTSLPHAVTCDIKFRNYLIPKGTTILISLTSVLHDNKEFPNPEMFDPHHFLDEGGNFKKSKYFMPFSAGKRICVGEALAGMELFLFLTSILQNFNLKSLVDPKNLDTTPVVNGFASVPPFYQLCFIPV
pIC50: −log10 of the molar value.

- molecule: "Cc1cc2c(cc1CC(=O)c1sccc1S(=O)(=O)Nc1onc(C)c1Cl)OCO2 [sixtaxsentan, reference compound]"
  pIC50: 7.00
